Consider the following binders; for each one, report its glycan array binding signal (z-score).
- tested.on: Gal(b1-3)[Fuc(a1-4)]GlcNAc(b1-2)Man(a1-3)[Gal(b1-3)[Fuc(a1-4)]GlcNAc(b1-2)Man(a1-6)]Man(b1-4)GlcNAc(b1-4)[Fuc(a1-6)]GlcNAc
- test: glycan array binding signal (z-score within array); higher = stronger binding
- measurement.conditions: glycan notation: IUPAC condensed, linker removed
Many of the other results were omitted from the sample, so the strongest signals are more common in it than they were.
Could you keep your reply to the number by itself?

Reported glycan array binding signal (z-score) for LFA (Limax flavus) (protein) MSVLFLAASFLLLASFELVAAQGCPRQDPGDWIVIQRRLNADVNFYRGWADYKHGFGDLRCNFWLGNEKIHQLTSHGRYKLRVEFTFNNKSYFAEYSTFKILGEADKYKLQVGGYSGNAGDALTFHNGMAFSTNDRDNDADSIDCAKVYHGAWWYKTCHESNLNGKWGSKKYGEGLNWKAKTTFTATATSSLLKIKALK : what is it? 0.669

Now the same for HPA (Helix pomatia), Q575S3 (protein) MWAHLTGLLLICALSLSAAQRAQTGEIDCGSDSSWPKDPSDNPNRDNTREIVKHVTFSPQFCREPKVILSVTTLDAEHTKNLRYEARLKSVSPSGLSASCYSWHDGTIYRMKLSWLAVED -0.227

Now the same for PFL (Pseudomonas fluorescens) (protein) MSKYAVANQWGGSSAPWHPGGTWVLGARDNQNVVAIEIKSGDGGKSFTGTMTYAGEGPIGFKAQRTGQNQYNVENQWGGNDAPWHPGGKWVIGGRDNQNVIALSVTSSDGGKNLSGTNTYANEGPIGFRGQIE 0.665

Now the same for Gal 9 (Canis lupus) (protein) MAFSSSQPPYLSPGVPFSGKIQGGLQDGLKITINGTILYCNGTRFAVNFHSGHSDSDIAFHFNPRFEEGGYVVCNTKQKGSWGSEERKMQMPFQMGNPFELCFMVNSCDFKVTVNGSHFTQYSHRVPFHYVDTLSITGAVQLSYISFQSPGVWQSSSAPITQTVIHTVQTTPGQPFPNPIIPPTAYPTPTYPMPFFTSIPGGLYPSKSIIVSGTVLPGAKRFHINLRSGNDIAFHLNPRFNENTVVRNMQINNSWGSEERSLPRKMPFVQGQSFSVWIMCEGHCFKVAVDGEHLFEYYHRLKNLLAINNMEVAGDVQLTHVQT -0.287

Now the same for KILRGVCKKIMRTFLRRISKDILTGKK [NK2 (Sus scrofa)] -0.004

Now the same for CLECb-Precomplexed (Mus musculus), P43025 (protein) MAKNGLVLCILVVSLLLDQTDGYPSRMKARKHSKRRVKAKDDDLKSQVEKLWREVNALKEMQALQTVCLRGTKVHKKCYLASEGLKHYHEANEDCISKGGTLVVPRNSDEINALRDYGKRSLPGVNDFWLGINDMVTEGKFLDVHGFAVSFLNWDRAQPSGGKRENCVLFSQSAQGKWSDEACRSSKRYICEFIIPTRTRPLEQKLISEEDLAANDILDYKDDDDKV 2.08

Now the same for OS9 (Arabidopsis thaliana) (protein) MRGSHHHHHHGMASMTGGQQMGRDLYDDDDKSRLQIFPAHLVGTFSRNNREPKYKIEFLPEDSPFHPGDNLESMVMLDKHGNRFLCYLPKEEKATSGWTSSQQNISTVMMETQQLVKLKTPDELLQPLSEKCLFRQEGWWSYEFCHQKYVRQLHVEDENKIVQEFFLGTFDPEATAAFNQTVSDASTDASQRYHSHVYTNGTTCDLTGSPREVEVRFVCAETRAMVTSITELSTCKYALTVQCPTLCKHPLFQLEKPVSHTIHCNAIPVEEDATRNKEEQAVDESPKMIADS 7.5

Now the same for Nc3LysM-2 (protein) AHVLQARQSVSCDFATAANTGDTCASFAAAWGITEAAFAKLNPGVSCPGNLIAGSEYCVIGTVSTGAPTTTKAATTSTTPPTTTTTTKATTLSTSTTSVSPTGPSPQMPSITSTCNKFYQVQSGDGCWSIEQAQGVSASDFMAWNKAVDAQCDNLWLGYYVCVGVKGGSSPPPTTTTKPASSSAPTPQMPNTVSNCKKFHKVVSGDGCWAIEQAAGISASDFAKWNPYVDAACDNLWLGYYVCIGV 0.856

Now the same for EULS2 M1 (Oryza sativa) (protein) MVYCRANPNYAMTARNGAVVLAPANPKDEYQHWIKDMRWSTSIKDEEGYPAFALVNKATGQAIKHSLGQSHPVRLVPYNPEVMDESVLWTESRDVGNGFRCIRMVNNIYLNFDAFHGDKYHGGVRDGTDIVLWKLCEGDNQRWKIQPYYILEQKLISEEDLNSAVDHHHHHH 1.19

Now the same for Gal 7 (Canis lupus) (protein) MAGSSNVPHKTSLPEGIRVGTVMRIRGVVPNKAGRFYVNLLCGEAPGSEAALHFNPRLDESTVVFNTLEQGAWGREERGTGIPFQRGQPFDVLLIATDEGFKAVVGDSEYHHFRYRIPPARVRLLEVGGDLQLESVSVF -0.199

Now the same for AT5G01260(PC)(40) (Arabidopsis thaliana), Q9LFB0 (protein) MIGIGRTLTSSSPSKIILEDLPPGIYRYGTEIFTSVPRKTFHHIKFLRLDSAQSSRILKPVPLRSSSIKDSQVNVEDEEIEASNKTVRVRFQLRKECVFGEHFFIVGDDPVFGGLWDPETALPLNWSDGNVWTVDLDLPVGRLVEFKLLLKAQTGEILWQPGPNRALETWETNKTIRICEDWDNADLQMMIEEDFVPYTNISSIGSEDEDEVLGSVQQNSSVVAVENAGYVSDESAQNSSFSIQSEKTMEPSNGALTAREVIKEAMFTEEESPVLVPGLIPLSDLDNEQVEVINEGKAETFPEVDKKQEPKAERNKKAKVKAISLFEKSEQEAVKSVEQRQYNAVEEEQQRLETEPLGTPDVLFENDIQWGRRTLYKLLSNFRLF 0.147

Now the same for Arath Fbox LD (Arabidopsis thaliana) (protein) EFSVWLEKASGKRCLMLSAMNLSIIWGDNPQYWQWIPIPESRFEKVAKLRDVCWFEIRGRTNTRVLSPRTRYSAYIVFKGVDKCYGFQNVAIEAAVGVVGQEPSRRLICFSEAIRRGRRNVVKPKQREDGWMEIELGEFFNDGGIMDNDEIEMSALETKQLNRKCGLIIQGIEIRPAKILAAASFLEQKLISEEDLNSAVDHHHHHH 2.55
